# credit: paper PMC9352680

Test System: T1, PUF4 RNA-binding domain (Saccharomyces cerevisiae, UniProt P25339 537-888)
T1 sequence: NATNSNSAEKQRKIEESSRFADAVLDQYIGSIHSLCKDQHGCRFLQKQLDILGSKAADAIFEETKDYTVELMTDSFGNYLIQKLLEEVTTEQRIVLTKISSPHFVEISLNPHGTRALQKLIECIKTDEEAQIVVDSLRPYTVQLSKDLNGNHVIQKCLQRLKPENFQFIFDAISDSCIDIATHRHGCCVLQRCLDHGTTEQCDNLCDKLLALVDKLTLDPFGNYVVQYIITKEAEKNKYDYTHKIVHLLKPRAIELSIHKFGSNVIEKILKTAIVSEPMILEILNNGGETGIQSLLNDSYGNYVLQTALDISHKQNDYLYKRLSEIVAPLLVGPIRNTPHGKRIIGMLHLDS
Protocol Text: Mg; RNA-MaP; 20 mM Na-HEPES pH 7.4, 30 mM KOAc, 0.75 mM MgCl2, 0.1% Tween-20, 5% glycerol, 0.1 mg/mL BSA, 2 mM DTT; 25 C; 0.0125-409.6 nM protein
Condition Label: tags: N-His6-TEV cleaved; C-SNAP kept, Cy3B-labelled; label: tethered on chip by stalled RNA polymerase
Measured Parameter: pKd
Answers are plain numbers, as −log10 of the molar value.

// known answers, use as guide
Consider the binder shown here: UCUCUUUGUACUCCCUCUCUU (ssRNA) [Ic_S1_P4E.1_K4.1_C4.1_H4.1_A4.1_[T5C]_[A6T]_[T7C]_F4.1_[T8C]_[A9C]_T4.1] What is its recorded pKd?
6.29

Same question for UCUCUUUGUAUCAUGCUCUCUU (ssRNA) [Ic_S1_P5E.1_K5.1_C5.1_H5.1_A5.1_[T6C]_F5.1_[T9G]_[A10C]_T5.1] please.
7.95

Same question for Ic_S2_P5E.1_K5.1_C5.1_H5.1_A5.1_[T6A]_[A7G]_F5.1_[T9A]_[A10C]_T5.1 (ssRNA) RNA: UUUGAUUAAUAUGAUAUCGUUCUUUCUUGUAUAGUACUUCUUUCUCGAUAUCAUAUUAAUCUUU please.
8.61

Please report pKd for every entry that follows.
1. Id_ii_S4_P5E.2_K5.1_C5.2_[C-2T]_[T-1G]_H5.1_A5.1_F5.1_T5.2_[T11A]_[A12C] (ssRNA) RNA: UUUGACAACUGAUCGUUCUUUCUUGUGUAUUAUUAACUUCUUUCUCGAUCAGUUGUCUUU
2. Ie_S4_P4E.1_K4.1_C4.1_H4.1_A4.1_F4.1_[+9CCCTT]_T4.1 (ssRNA) RNA: UUUGACAACUGAUCGUUCUUUCUUGUAUAUUACCCUUUUCUUUCUCGAUCAGUUGUCUUU
3. UCUCUUUGUAACCCCAUCUCUU (ssRNA) [Ic_S1_P5E.1_K5.1_C5.1_H5.1_A5.1_[T5A]_[T6C]_[A7C]_F5.1_[T8C]_[T9C]_T5.1]
4. Ic_S4_P5E.1_K5.1_C5.1_H5.1_A5.1_[A7T]_F5.1_[T9C]_[A10T]_T5.1 (ssRNA) RNA: UUUGACAACUGAUCGUUCUUUCUUGUAUUUUCUUUCUUUCUCGAUCAGUUGUCUUU
5. UCUCUUUGUAGUUAUUCUCUU (ssRNA) [Ic_S1_P4E.1_K4.1_C4.1_H4.1_A4.1_[T5G]_[A6T]_F4.1_[T8A]_[A9T]_T4.1]
6. UCUCUUUGUAAUCUCUUCUCUU (ssRNA) [Ic_S1_P5E.1_K5.1_C5.1_H5.1_A5.1_[T5A]_[A7C]_F5.1_[T9C]_[A10T]_T5.1]
7. Ic_S4_P4E.1_K4.1_C4.1_H4.1_A4.1_[A6T]_[T7C]_F4.1_[A9G]_T4.1 (ssRNA) RNA: UUUGACAACUGAUCGUUCUUUCUUGUAUUCUGUUCUUUCUCGAUCAGUUGUCUUU

1: 8.51; 2: 9.25; 3: 5.89; 4: 7.81; 5: 6.16; 6: 6.36; 7: 7.69

Please report pKd for every entry that follows.
1. UCUCUUUGUCUCUUAUAUUAUCUCUU (ssRNA) [Ie_S1_P4E.1_K4.1_C4.1_H4.1_[+2TCTCT]_A4.1_F4.1_T4.1]
2. UCUCUUUGUAAUAUGUCUCUU (ssRNA) [Ic_S1_P4E.1_K4.1_C4.1_H4.1_A4.1_[T5A]_[A6T]_[T7A]_F4.1_[A9G]_T4.1]
3. Ia_S2_P5E.1_K5.1_C5.1_H5.1_A5.1_[T5C]_F5.1_T5.1 (ssRNA) RNA: UUUGAUUAAUAUGAUAUCGUUCUUUCUUGUACUAUUAUUCUUUCUCGAUAUCAUAUUAAUCUUU

[6.87, 7.90, 8.83]
